cAMP released with respect to control, 10 nM peptide, UMR-106 cells overview
Target: T1, rat PTH-1R (rat PTHR endogenously expressed on UMR-106 rat osteosarcoma cells) (rat, UniProt P25961 27-591)
T1 sequence (looked up): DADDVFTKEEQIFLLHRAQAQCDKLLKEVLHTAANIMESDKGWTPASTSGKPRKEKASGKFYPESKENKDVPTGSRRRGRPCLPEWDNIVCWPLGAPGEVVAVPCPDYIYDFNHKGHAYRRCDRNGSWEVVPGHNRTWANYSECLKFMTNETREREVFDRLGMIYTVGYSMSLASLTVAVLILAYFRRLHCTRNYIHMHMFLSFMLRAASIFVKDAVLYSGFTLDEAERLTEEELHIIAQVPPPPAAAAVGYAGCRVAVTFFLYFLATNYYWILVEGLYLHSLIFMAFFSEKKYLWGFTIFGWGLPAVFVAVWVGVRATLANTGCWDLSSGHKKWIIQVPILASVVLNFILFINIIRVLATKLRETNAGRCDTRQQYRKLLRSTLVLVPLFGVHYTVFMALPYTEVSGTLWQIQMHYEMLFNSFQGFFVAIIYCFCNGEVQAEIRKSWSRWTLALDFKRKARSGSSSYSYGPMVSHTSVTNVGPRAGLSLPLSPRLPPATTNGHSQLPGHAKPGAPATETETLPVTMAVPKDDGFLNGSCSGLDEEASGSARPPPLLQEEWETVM
Experiment: cell-based or functional assay
*1 amine or outer side, *2 acyl side, *3 side chain or, on linkers, in order; H or OH if unused. Where no end group is shown, it is not given here. [ ]: non-standard residue; d: D form. αMe‑APPA = 2-amino-2-methyl-5-phenylpentanoic acid, C[C@@](CCCc1ccccc1)(N[*:1])C(=O)[*:2]; Bip(2'-Et-4'-OMe) = CCc1cc(OC)ccc1-c1ccc(C[C@H](N)C(=O)O)cc1; αMePhe(2,6-F2) = C[C@](N)(Cc1c(F)cccc1F)C(=O)O; hhPhe = N[C@@H](CCCc1ccccc1)C(=O)O; hArg = N=C(N)NCCCC[C@H](N)C(=O)O; Cit = NC(=O)NCCC[C@H](N)C(=O)O; αMeV = CC(C)[C@](C)(N)C(=O)O; αMeM = CSCC[C@](C)(N)C(=O)O; Nle = CCCC[C@H](N)C(=O)O; Orn = NCCC[C@H](N)C(=O)O; Ac5c = NC1(C(=O)O)CCCC1; Aib = CC(C)(N)C(=O)O

A selection of reference data follows.
[αMeV][Ac5c]V[Aib]EIQL[αMeM]HQ[hArg]A[hArg][Bip(2'-Et-4'-OMe)][αMe‑APPA] [Seq. ID. 926]    51 percent of control
[Aib]V[Ac5c]EIQ[αMePhe(2,6-F2)][Nle]HQ[hArg][Aib][Cit][αMePhe(2,6-F2)] [Seq. ID. 156]    89 percent of control

What does the data say about its cAMP released with respect to control, 10 nM peptide, UMR-106 cells? Entry: [Ac5c]V[Aib]EIQ[αMePhe(2,6-F2)][Nle]HQ[Orn][Aib][αMePhe(2,6-F2)][Bip(2'-Et-4'-OMe)][hhPhe] [Seq. ID. 841]
74 percent of control
